# TESTED_ON: human recombinant 15-PGDH (Homo sapiens, UniProt P15428)
# Sequence (P15428 whole entry): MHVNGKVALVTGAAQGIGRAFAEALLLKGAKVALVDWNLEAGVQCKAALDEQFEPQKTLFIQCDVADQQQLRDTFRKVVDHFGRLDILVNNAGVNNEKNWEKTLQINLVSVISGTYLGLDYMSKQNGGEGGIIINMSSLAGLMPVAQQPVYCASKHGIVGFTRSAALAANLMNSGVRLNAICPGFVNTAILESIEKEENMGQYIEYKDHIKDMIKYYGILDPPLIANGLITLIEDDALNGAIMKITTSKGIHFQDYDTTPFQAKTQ
# TEST: Inhibition of recombinant 15-PGDH enzymatic activity (NADH quantification after addition of PGE2 and NAD+)
# Format: biochemical
# ASSAY_CONDITIONS: recombinant 15-PGDH; 15 min pre-incubation, 60-minute reaction, room temperature, pH 7.5; PGE2 and NAD+; read-out: PGDH-Lumi IC50
Assignment: determine reported IC50 for the given compounds.
# answer = value followed by unit

# compound CN(C(=O)c1cc2c(C3CC3)cc(-c3cnc4nn(C)cc4c3)nc2s1)C1CCC1 [Compound B15] ; its IC50 = 0.475 nM

# compound Cn1cc2cc(-c3cnc4sc(C(=O)N5CCC(F)(F)CC5)cc4n3)cnc2n1 [Compound C40] ; its IC50 = 0.726 nM

# compound C[C@H]1COCCN1C(=O)c1cc2ccc(-c3nccs3)nc2s1 [Compound B33S] ; its IC50 = 2650 nM

# compound C[C@@H]1COCCN1C(=O)c1cc2ccc(-c3ccc4ncccc4c3)nc2s1 [Compound B61R] ; its IC50 = 189 nM

* * *

Assignment: determine reported IC50 for the given compounds.
# TESTED_ON: human recombinant 15-PGDH (Homo sapiens, UniProt P15428)
# TEST: Inhibition of recombinant 15-PGDH enzymatic activity (NADH quantification after addition of PGE2 and NAD+)
# Format: biochemical
# ASSAY_CONDITIONS: recombinant 15-PGDH; 15 min pre-incubation, 60-minute reaction, room temperature, pH 7.5; PGE2 and NAD+; read-out: PGDH-Lumi IC50
Record the value in nM, omitting the unit from your answer.

# compound Cn1cc2cc(-c3ccc4sc(C(=O)N5CCCCC5)c(N)c4n3)cnc2n1 [Compound C45] ; its IC50 = 0.679

# compound O=C(c1cc2ccc(-c3cnc4nccnc4c3)nc2s1)N1CCOCC1 [Compound B56] ; its IC50 = 5.91

# compound Cn1cc2cc(-c3ccc4cc(C(=O)N5CCC(F)(F)CC5)sc4n3)cnc2n1 [Compound B25] ; its IC50 = 0.352

# compound C[C@@H]1COCCN1C(=O)c1nc2ccc(-c3cnc4nn(C)cc4c3)nc2s1 [Compound C52R] ; its IC50 = 17

# compound Cn1cc2cc(-c3ccc4cc(C(=O)N5CCOCC5C#N)sc4n3)cnc2n1 (centres unmarked) [Compound B30] ; its IC50 = 212

# compound CO[C@H]1CCN(C(=O)c2sc3cc(-c4cnc5nn(C)cc5c4)ccc3c2C)C1 [Compound A4S] ; its IC50 = 19.5

# compound C[C@@H]1COCCN1C(=O)c1cc2ccc(-c3cnc4nn(C)cc4c3)nc2s1 [Compound B9R] ; its IC50 = 6.39

# compound C[C@H]1COCCN1C(=O)c1sc2nc(-c3cnc4nn(C)cc4c3)cc(C3CCC3)c2c1N [Compound B6S] ; its IC50 = 0.554

# compound Cn1cc2cc(-c3cc(C4CC4)c4cc(C(=O)N5CCCOCC5)sc4n3)cnc2n1 [Compound B24] ; its IC50 = 0.428

# compound Cn1nccc1-c1nc(-c2cnc(=O)[nH]c2)nc2sc(C(=O)N3CCC(F)(F)CC3)cc12 [Compound C38] ; its IC50 = 16

# compound O=C(c1cc2ccc(-c3nccs3)nc2s1)N1CCOCC1 [Compound B38] ; its IC50 = 1330

# compound Cn1cc2cc(-c3ccc4cc(C(=O)N5CCC(C(F)(F)F)CC5)sc4n3)cnc2n1 [Compound B21] ; its IC50 = 1.45

# compound Cc1c(C(=O)N2CCOC(C)(C)C2)sc2cc(-c3cnc4nn(C)cc4c3)ccc12 [Compound A6] ; its IC50 = 185

# compound Cn1cc2cc(-c3cc(-c4ccnn4C)c4cc(C(=O)N5CCSCC5)sc4n3)cnc2n1 [Compound B14] ; its IC50 = 0.519

# compound Cn1cc2cc(-c3ccc4cc(C(=O)N5CCOCC56CC6)sc4n3)cnc2n1 [Compound B45] ; its IC50 = 46.1

# compound C[C@H]1COCCN1C(=O)c1cc2ccc(-c3cnc4nccnc4c3)nc2s1 [Compound B57S] ; its IC50 = 10.3

# compound Cn1cc2cc(-c3ccc4cc(C(=O)N5CCOCC5)sc4n3)cnc2n1 [Compound B8] ; its IC50 = 5.55
